Experiment: qHTS assay to identify small molecule antagonists of the constitutive androstane receptor (CAR) signaling pathway - cell viability counter screen (AID 1224837); note: % is set by controls: 0 for no effect and ±100 for the full control effect; nearly all actives have a fitted effect of over 45% in size
Conditions: HepG2-CYP2B6-hCAR viability, CellTiter-Fluor, 23 h, co-treated with 50 nM CITCO; series mostly up to 92.4 µM
Results filed as inconclusive are left out. Calls of active or inactive are those of the source. Calls come from the whole dose curve; as a rule, active = well fitted cell-killing curve with a large enough effect in the repeat runs; inconclusive = weak or mixed curves, or effect the other way; inactive = flat fitted curve, though single readings scatter.
metric: activity change, negative = cytotoxicity

// worked examples, activity change, negative = cytotoxicity included
>>> value_measured("C[N+]1(CC2COC(c3ccccc3)(c3ccccc3)O2)CCCCC1 (stereo not drawn)")
"4.57% [at 19 µM] (inactive)"
>>> value_measured("CCCCOCCOC(=O)COc1cc(Cl)c(Cl)cc1Cl")
"inactive"
>>> value_measured("Nc1ccncc1N")
"inactive"
>>> value_measured("CC(C)C[C@@H](N)C(=O)O")
"0.137% [at 19 µM] (inactive)"
>>> value_measured("NS(=O)(=O)Cc1noc2ccccc12")
"inactive"
>>> value_measured("C=COCC1CCC(COC=C)CC1 (stereo not drawn)")
"inactive"
>>> value_measured("CC(CO)(CO)[N+](=O)[O-]")
"inactive"

--- query ---
Recorded activity change, negative = cytotoxicity of C1CCC2=NCCCN2CC1 , please.
inactive

====

Molecular target: Estrogen receptor beta (Homo sapiens)
Test: qHTS assay to identify small molecule antagonists of the estrogen receptor beta (ER-beta) signaling pathway (AID 1259378); note: % is set by controls: 0 for no effect and ±100 for the full control effect
Details: ER-beta-UAS-bla HEK293T, beta-lactamase FRET ratio, 16 h; series mostly up to 92.4 µM
Records with an inconclusive call do not appear. The source made the active and inactive calls. Calls follow the shape of the dose curve; as a rule, active = well fitted inhibition curve with a large enough effect in the signal ratio in the repeat runs (not every such curve was filed as active); inconclusive = weak or mixed curves, or effect the other way; inactive = no such curve, though single readings can be large or run the other way; the % refers to the signal ratio.
Bench note: report the call from class 1 = active, class 0 = inactive

>>> class_name("Cc1onc(-c2c(Cl)cccc2Cl)c1C(=O)Cl")
"class 0"
>>> class_name("CC(CC=O)CC(C)(C)C (stereo not given)")
"class 0"
>>> class_name("[K+]")
"class 0"

What is the recorded call for this molecule in the test? CCCCCCCC1CCCC1=O (stereo not given)
class 0

What call does the record list for O=[N+]([O-])c1ccc(/C=N\O)o1 ?
class 0

Entry CCN(C=O)CC : call = ?
class 0

Hi, sorry to bother you, what did the test record for CCOc1c(N2CCOCC2)cnn(C)c1=O ?
class 0

====

Experiment: qHTS assay to identify small molecule agonists of H2AX (AID 1224845); note: % is set by controls: 0 for no effect and ±100 for the full control effect
Details: CHO-K1 phospho-H2AX Ser139 HTRF, 3 h; series mostly up to 154 µM
Inconclusive results are not listed. Activity calls are given as the source filed them. Calls come from the whole dose curve; as a rule, active = well fitted activation curve with a large enough effect in the signal ratio in the repeat runs (not every such curve was filed as active); inconclusive = weak or mixed curves; inactive = flat fitted curve, though single readings scatter; the % refers to the signal ratio.
metric: activation (H2AX phosphorylation)

Guide cases for activation (H2AX phosphorylation), answers given:
>>> value_measured("O=C(CO)[C@@H](O)[C@H](O)[C@@H](O)CO")
"inactive"
>>> value_measured("CC(C#N)(CCC(=O)O)N=NC(C)(C#N)CCC(=O)O (stereo not drawn)")
"inactive"
>>> value_measured("CCCCN(CCC(=O)OCC)C(C)=O")
"inactive"
>>> value_measured("COc1cccc(OC)c1C(=O)N[C@@H]1C(=O)N2[C@@H]1SC(C)(C)[C@@H]2C(=O)O")
"inactive"
>>> value_measured("CCN1CCOCC1")
"inactive"
>>> value_measured("Cc1ccc(C(=O)Nc2ccc(S(=O)(=O)O)c3cc(S(=O)(=O)O)cc(S(=O)(=O)O)c23)cc1NC(=O)c1cccc(NC(=O)Nc2cccc(C(=O)Nc3cc(C(=O)Nc4ccc(S(=O)(=O)O)c5cc(S(=O)(=O)O)cc(S(=O)(=O)O)c45)ccc3C)c2)c1")
"inactive"

Below are some molecules; for each one, tell me its activation (H2AX phosphorylation).
1. CNCCO
2. [Ca+2]
3. NCCCC(N)(C(=O)O)C(F)F (stereo not drawn)
4. Cc1nc(C2CCCCC2)c(-c2ccc(S(N)(=O)=O)c(F)c2)o1
5. NC(=O)NC1N=C([O][Al])NC1=O (stereo not drawn)

1. inactive
2. inactive
3. inactive
4. inactive
5. inactive

====

Molecular target: Cytochrome P450 1A2 (Homo sapiens) (UniProt P05177)
Sequence (P05177 whole entry, looked up): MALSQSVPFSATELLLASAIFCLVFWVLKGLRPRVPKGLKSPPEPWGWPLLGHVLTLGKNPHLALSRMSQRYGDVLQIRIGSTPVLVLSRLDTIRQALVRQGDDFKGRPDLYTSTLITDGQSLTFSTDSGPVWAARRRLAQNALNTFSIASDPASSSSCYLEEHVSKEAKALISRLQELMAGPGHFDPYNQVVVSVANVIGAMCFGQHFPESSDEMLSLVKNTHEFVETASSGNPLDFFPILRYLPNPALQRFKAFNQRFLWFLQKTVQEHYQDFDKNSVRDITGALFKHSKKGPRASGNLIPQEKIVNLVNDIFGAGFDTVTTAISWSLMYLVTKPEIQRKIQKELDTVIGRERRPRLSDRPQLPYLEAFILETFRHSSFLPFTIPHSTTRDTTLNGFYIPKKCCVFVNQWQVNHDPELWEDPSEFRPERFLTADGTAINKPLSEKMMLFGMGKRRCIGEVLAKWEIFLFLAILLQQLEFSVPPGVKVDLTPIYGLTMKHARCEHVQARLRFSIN
Assay: Cytochrome P450 Family 1 Subfamily A Member 2 (CYP1A2) small molecule antagonists: luciferase reporter qHTS assay (AID 1671199); note: nearly all actives have a fitted effect of over 50% in size; note: potency is the fitted concentration of half-maximal effect
Details: P450-Glo CYP1A2 enzyme, luciferin luminescence, 1 h; series mostly up to 53 µM
Records with an inconclusive call do not appear. Activity calls are given as the source filed them. Calls follow the shape of the dose curve; as a rule, active = well fitted inhibition curve with a large enough effect in the repeat runs; inconclusive = weak or mixed curves; inactive = no such curve, though single readings can be large or run the other way.
metric: Potency

>>> value_measured("CC(CC=O)CC(C)(C)C (centres undefined)")
"inactive"
>>> value_measured("CCN(Cc1ccccc1)c1ccccc1")
"35.1 µM (active)"
>>> value_measured("CC(C)NNC(=O)c1ccncc1")
"inactive"
>>> value_measured("CCC(C(=O)NC(=O)NC(C)=O)c1ccccc1 (centres undefined)")
"inactive"
>>> value_measured("CC[N+](CC)(CC)CCOc1cccc(OCC[N+](CC)(CC)CC)c1OCC[N+](CC)(CC)CC")
"inactive"
>>> value_measured("CCCc1ncc(C[n+]2ccccc2C)c(N)n1")
"inactive"
>>> value_measured("O=[N+]([O-])c1ccc(/C=N\\O)o1")
"27.5 µM (active)"
>>> value_measured("CC(C)COC(=O)c1ccc(N)cc1")
"6.92 µM (active)"

Batch request: Potency per item, same order as input.
1. FB(F)F
2. CC1=NN(c2cc(S(=O)(=O)O)ccc2Cl)C(=O)C1N=Nc1ccccc1 (centres undefined)
3. Cc1ccnc(NS(=O)(=O)c2ccc(N)cc2)n1
4. COc1cc(C(=O)OC(COCCC(C)C)CN2CCOCC2)cc(OC)c1OC (centres undefined)
5. Clc1cc(Cl)cc(Cl)c1
6. CCN(CC#N)c1cccc(C)c1

["inactive", "inactive", "inactive", "inactive", "inactive", "28.3 µM (active)"]

====

Assay: qHTS assay for small molecule activators of the heat shock response signaling pathway - cell viability counter screen (AID 743209); note: % is set by controls: 0 for no effect and ±100 for the full control effect; nearly all actives have a fitted effect of over 50% in size
Details: HSE-bla HeLa viability, CellTiter-Glo luminescence, 5 h; series mostly up to 62.6 µM
Results filed as inconclusive are left out. Activity calls are given as the source filed them. The call rests on the fitted dose curve; in most records, active means well fitted cell-killing curve with a large enough effect in the repeat runs; inconclusive means weak or mixed curves, or effect the other way; inactive means no such curve, though single readings can be large or run the other way.
metric: activity change, negative = cytotoxicity

In the examples that follow, each entry is paired with its recorded activity change, negative = cytotoxicity.
>>> value_measured("O=C(O)CNC(=O)c1ccccc1")
"inactive"
>>> value_measured("C=C(C)C(=O)OCC(O)CO (stereo not given)")
"inactive"
>>> value_measured("NC(=O)Cc1cccc2ccccc12")
"inactive"
>>> value_measured("COc1ccnc(CS(=O)c2nc3cc(OC(F)F)ccc3[nH]2)c1OC (stereo not given)")
"inactive"
>>> value_measured("CN(C)[C@@H]1C(=O)C(C(=O)NCN2CCCC2)=C(O)[C@@]2(O)C(=O)C3=C(O)c4c(O)cccc4[C@@](C)(O)C3C[C@@H]12 (stereo not given in full)")
"inactive"

Would you mind listing activity change, negative = cytotoxicity for each of the following molecules?
1. CCCCS(=O)(=O)N[C@@H](Cc1ccc(OCCCCC2CCNCC2)cc1)C(=O)O
2. CCCCc1ccc2c(n1)[C@@H](c1ccc(OC)cc1C[C@H](C)C(=O)O)[C@H](C(=O)O)[C@H]2c1ccc2c(c1)OCO2
3. C=COC(=O)C(C)(CC)CCC(C)C (stereo not given)
4. CC[N+](CC)(CC(=O)Nc1c(C)cccc1C)Cc1ccccc1 (tested in a mixture with another compound)
5. CN1C(C)(C)CC(O)CC1(C)C

["inactive", "inactive", "inactive", "inactive", "inactive"]

====

Test: qHTS assay to test for compound auto fluorescence at 535 nm (green) in HepG2 cells (AID 720675); note: % is set by controls: 0 for no effect and ±100 for the full control effect
Conditions: green autofluorescence 485/535 nm, 1 h; series mostly up to 91.3 µM
Activity calls are given as the source filed them. Calls follow the shape of the dose curve; as a rule, active = well fitted curve in the direction sought with a large enough effect in the repeat runs; inconclusive = weak or mixed curves; inactive = flat fitted curve, though single readings scatter.
metric: fluorescence, % of fluorescein control

Previously resolved entries follow.
>>> value_measured("CCCCCC(=O)OCCc1ccccc1")
"inactive"
>>> value_measured("CCOC(=O)COC(=O)c1ccccc1C(=O)OCC")
"inactive"
>>> value_measured("C=CCCCCCCCCC(=O)OCC")
"inactive"
>>> value_measured("NC(=O)Cc1cccc2ccccc12")
"inactive"
>>> value_measured("COc1ccnc(CS(=O)c2nc3cc(OC(F)F)ccc3[nH]2)c1OC (configuration not stated)")
"inactive"
>>> value_measured("CC(=O)c1ccccc1[N+](=O)[O-]")
"inactive"

Below are some compounds; for each one, tell me its fluorescence, % of fluorescein control.
1. C1CCC2(CCCCO2)OC1
2. c1ccc(CCc2ccccc2)cc1
3. CCC(=O)OCc1ccccc1
4. CC(=O)c1ccc2ccccc2c1

1. inactive
2. inactive
3. inactive
4. inactive

Consider the following items and state reported fluorescence, % of fluorescein control for each.
1. CN1CCC(=C2c3ccccc3CCc3cccnc32)CC1
2. CCOC(=O)OC(C)OC1=C(C(=O)Nc2ccccn2)N(C)S(=O)(=O)c2ccccc21 (configuration not stated)
3. CCOC(=O)c1cnc2c(cnn2CC)c1NN=C(C)C

["inactive", "inactive", "inactive"]

Provide fluorescence, % of fluorescein control values for the following items, in order.
1. O=C1NC(=O)C2CC=CCC12 (configuration not stated)
2. CN(C)CCN(C)CCN(C)C
3. c1ccc(Cc2ccccc2)cc1
4. O=C(O)CNC(=O)c1ccccc1
5. COC(=O)C1=C(C)NC(C)=C(C(=O)OC(C)C)C1c1cccc2nonc12 (configuration not stated)
6. CCCCCC(C)N (configuration not stated)
7. CC(C)(C#N)Nc1nc(Cl)nc(NC2CC2)n1
8. C=C(C)C(=O)OCCOCCOCCOCCOC(=O)C(=C)C

1. inactive
2. inactive
3. inactive
4. inactive
5. 0.024% [at 18.6 µM] (inactive)
6. inactive
7. inactive
8. inactive

Parameter requested: fluorescence, % of fluorescein control. Apply to each item below.
1. COc1cccc(OC)c1C(=O)N[C@@H]1C(=O)N2[C@@H]1SC(C)(C)[C@@H]2C(=O)O
2. CC(C)(C)OC(=O)c1cccc(N)c1
3. Cc1ccc(C(=O)c2ccccc2)cc1
4. CC1=NN(c2cccc(S(=O)(=O)O)c2)C(=O)C1
5. NC(CCC(=O)O)C(=O)O (configuration not stated)
6. NC(=O)N1c2ccccc2CC(=O)c2ccccc21

1. inactive
2. inactive
3. inactive
4. inactive
5. inactive
6. inactive
